experimental protocol: Cmax in rat at 1 mg/kg, iv measured after 12 hrs
Assay type: ADME, organism-based
Parameters: dose 1 mg/kg, time 12 hrs, route iv
measurement setup: in vivo
Label Criterion met when Cmax is strictly below 1000 nM; at or above that, label Criterion not met.

Worked cases, answers included:
chem_smiles=C[C@H]1CCN1c1nc(-c2cnn(CC(=O)NCCO)c2)cc(C(F)(F)F)c1C#N group="Criterion not met"
chem_smiles=C[C@H]1CCN1c1nc(-c2cnn(CC(=O)N3C[C@H](O)[C@@H](O)C3)c2)cc(C(F)(F)F)c1C#N group="Criterion not met"
chem_smiles=C[C@H]1CCN1c1nc(-c2cnn(CC(=O)N3CCNCC3)c2)cc(C(F)(F)F)n1 group="Criterion met"

Request: Please state whether Cmax is below 1000 nM for `OC[C@H]1CCN1c1nc(-c2cnn(C3CNC3)c2)cc(C(F)(F)F)n1`
Result: Criterion not met

Request: Hello, I'm reviewing records and need to know if Cmax of `C[C@H]1CCN1c1nc(-c2cnn(CC(=O)N(CCO)CCO)c2)cc(C(F)(F)F)c1C#N` is below 1000 nM. Could you check?
Result: Criterion not met

Request: Given the entry `OC[C@H]1CCN1c1nc(-c2cnn(C3CCNCC3)c2)cc(C(F)(F)F)n1` , would its reported Cmax be below 1000 nM?
Result: Criterion met

Request: Does this compound meet the criterion Cmax < 1000 nM? `C[C@H]1CCN1c1nc(-c2cnn(CC(=O)N3C[C@@H](O)[C@H](O)C3)c2)cc(C(F)(F)F)c1C#N`
Result: Criterion not met

* * *

System: Hepatocyte
experimental protocol: Cytotoxicity against rat Primary hepatocyte
Format: toxicity, cell-based
measurement setup: hepatocytes
Assign LC20 to each entry below.

List LC20 for every entry below, keeping the order given.
1. C[C@H]1CCN1c1nc(-c2cn[nH]c2)cc(C(F)(F)F)c1C#N
2. C[C@H]1CCN1c1nc(-c2cnn(CCN(C)C)c2)cc(C(F)(F)F)c1C#N
3. C[C@H]1CCN1c1nc(-c2cnn(C3CCN(CCO)CC3)c2)cc(C(F)(F)F)c1C#N
4. C[C@H]1CCN1c1nc(-c2cnn(CC(=O)N3CCN(C)CC3)c2)cc(C(F)(F)F)c1C#N
5. C[C@H]1CCN1c1nc(-c2cnn(CC(=O)NCCO)c2)cc(C(F)(F)F)c1C#N
6. OC[C@H]1CCN1c1nc(-c2cnn(C3CCNCC3)c2)cc(C(F)(F)F)n1
7. C[C@H]1CCN1c1nc(-c2cnn(C3CCNCC3)c2)cc(C(F)(F)F)c1C#N
8. C[C@H]1CCN1c1nc(-c2cnn(C3CNC3)c2)cc(C(F)(F)F)n1

Result:
1. > 50 µM
2. > 50 µM
3. 17 µM
4. 18 µM
5. > 50 µM
6. > 50 µM
7. < 9 µM
8. 48 µM

* * *

measurement target: Ketohexokinase (Homo sapiens, UniProt P50053)
Sequence (P50053 whole entry): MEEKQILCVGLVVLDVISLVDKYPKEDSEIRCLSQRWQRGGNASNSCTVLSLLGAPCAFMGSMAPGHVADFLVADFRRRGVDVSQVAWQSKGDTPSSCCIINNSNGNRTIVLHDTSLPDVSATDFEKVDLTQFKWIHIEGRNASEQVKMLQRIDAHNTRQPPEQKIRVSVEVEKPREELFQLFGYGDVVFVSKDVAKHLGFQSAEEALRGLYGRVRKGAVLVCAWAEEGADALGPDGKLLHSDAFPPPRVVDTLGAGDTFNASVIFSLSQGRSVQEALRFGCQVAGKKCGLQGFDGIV
experimental protocol: Inhibition of human KHK-A preincubated for 15 mins followed by substrate addition and measured after 20 mins in presence of ATP by Rapidfire MS analysis
value type: IC50 (nM)
Numbers only, in nM.

// solved cases for IC50 follow
chem_smiles=C[C@H]1CCN1c1nc(-c2cnn(C3CCN(CCO)CC3)c2)cc(C(F)(F)F)c1C#N value_type=IC50 unit_annotation=nM experimental_value=4
chem_smiles=C[C@H]1CCN1c1nc(-c2cnn(C3CCOCC3)c2)cc(C(F)(F)F)c1C#N value_type=IC50 unit_annotation=nM experimental_value=33

Fill in IC50 for each of the 7 compounds listed.
1. C[C@H]1CCN1c1nc(-c2cnn(CC(=O)N3CCN(C)CC3)c2)cc(C(F)(F)F)c1C#N
2. C[C@H]1CCN1c1nc(-c2cnn(C3CNC3)c2)cc(C(F)(F)F)n1
3. C[C@H]1CCN1c1nc(-c2cnn(C3CCN(C(=O)CN)CC3)c2)cc(C(F)(F)F)c1C#N
4. C[C@H]1CCN1c1nc(-c2cnn(C3CCN(C)CC3)c2)cc(C(F)(F)F)c1C#N
5. C[C@H]1CCN1c1nc(-c2cnn(C3CCNCC3)c2)cc(C(F)(F)F)c1C#N
6. C[C@H]1CCN1c1nc(-c2cnn(C3CN(C)C3)c2)cc(C(F)(F)F)n1
7. C[C@H]1CCN1c1nc(-c2cnn(CC(=O)N3C[C@H](O)[C@@H](O)C3)c2)cc(C(F)(F)F)c1C#N

Result:
1. 9
2. 4
3. 6
4. 7
5. 4
6. 5
7. 7

Origin of the recorded values: ChEMBL document CHEMBL5375962
